molecular target: 5-HT2 receptor in A7r5 rat vascular smooth muscle cells (Rattus norvegicus); construct: endogenous in cells; host or cells: A7r5 rat vascular smooth muscle cells; experiment: 5-HT2 Functional Assay: Calcium Mobilization (FLIPR); assay type: cell-based
Structures can show the parent of a compound that is named as a salt.
Use EC50 to assign classes; range list: low: < 90 nM; moderate: ≥ 90 nM and < 900 nM; high: ≥ 900 nM

COc1cc(CC(C)N)c(OC)cc1CC[S+](C)[O-] (centres unmarked) [Example 16, hydrochloride] ... moderate
COCCc1cc(OC)c(C[C@@H](C)N)cc1OC.Cl [Example 3, hydrochloride] ... low
COc1cc(C[C@@H](C)N)c(OC)cc1CC1CCCS1 (some centres unmarked) [Example 13, hydrochloride] ... moderate

Q: For this compound, which bin applies? COc1cc(C[C@@H](C)N)c(OC)cc1Cc1ccccc1 [Example 17, hydrochloride]
A: moderate

Q: Proceed to COc1cc(C[S+](C)[O-])c(OC)cc1CC(C)N (centres unmarked) [Example 15, trifluoroacetate]
A: high

* * *

molecular target: 5-HT2 receptor in A7r5 rat vascular smooth muscle cells (Rattus norvegicus, UniProt P14842); construct: endogenous in cells; host or cells: A7r5 rat vascular smooth muscle cells; experiment: 5-HT2 Functional Assay: Calcium Mobilization (FLIPR); format: cell-based; details: percentage of maximum 5-HT-induced response, A7r5 cells; read-out: Efficacy (Emax %)
Sequence (P14842 whole entry): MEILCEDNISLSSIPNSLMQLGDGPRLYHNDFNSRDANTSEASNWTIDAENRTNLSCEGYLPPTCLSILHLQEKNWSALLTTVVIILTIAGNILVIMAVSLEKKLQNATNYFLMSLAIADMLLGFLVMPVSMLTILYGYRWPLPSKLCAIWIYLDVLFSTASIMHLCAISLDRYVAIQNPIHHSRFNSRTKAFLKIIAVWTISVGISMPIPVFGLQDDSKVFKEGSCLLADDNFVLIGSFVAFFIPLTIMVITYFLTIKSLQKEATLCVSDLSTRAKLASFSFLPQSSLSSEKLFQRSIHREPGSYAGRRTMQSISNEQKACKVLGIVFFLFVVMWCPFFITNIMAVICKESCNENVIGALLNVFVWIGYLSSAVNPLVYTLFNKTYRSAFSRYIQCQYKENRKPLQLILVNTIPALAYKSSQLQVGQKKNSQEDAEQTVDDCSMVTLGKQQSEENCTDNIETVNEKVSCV
Structures can show the parent of a compound that is named as a salt.
Use Emax to assign classes; range list: one (below 30%), two (30% to below 50%), three (50% or more)

COc1cc(C[S+](C)[O-])c(OC)cc1CC(C)N (centres unmarked) [Example 15, trifluoroacetate] ... two
COc1cc(C[C@@H](C)N)c(OC)cc1CC1=NCCS1 [Example 10, hydrochloride] ... three
COc1cc(C[C@@H](C)N)c(OC)cc1CC1CCCS1 (some centres unmarked) [Example 13, hydrochloride] ... three
COc1ccccc1Cc1cc(OC)c(C[C@@H](C)N)cc1OC [Example 19, hydrochloride] ... one
CCOC(=O)Cc1cc(OC)c(C[C@@H](C)N)cc1OC [Example 1, hydrochloride] ... one
COc1cccc(Cc2cc(OC)c(C[C@@H](C)N)cc2OC)c1 [Example 20, hydrochloride] ... three
COc1cc(CC(C)N)c(OC)cc1CC[S+](C)[O-] (centres unmarked) [Example 16, hydrochloride] ... two
COc1cc(C[C@@H](C)N)c(OC)cc1Cc1ccc(Cl)cc1 [Example 21, hydrochloride] ... two

Q: Any idea which band COc1cc(CC(C)N)c(OC)cc1CSC (centres unmarked) [Example 14, hydrochloride] is in?
A: three

Q: // next record COc1cc(C)c(OC(C)=O)cc1CC(C)N (centres unmarked) [Example 9, hydrochloride]
A: two

Q: Do the same for COc1cc(C[C@@H](C)N)c(OC)cc1CC1CCCO1 (some centres unmarked) [Example 12, hydrochloride] please
A: three

Q: Okay, and COCCCc1cc(OC)c(C[C@@H](C)N)cc1OC [Example 6, hydrochloride] ?
A: two

Q: // next record COCCc1cc(OC)c(C[C@@H](C)N)cc1OC.Cl [Example 3, hydrochloride]
A: three

Q: Thanks! And COc1cc(C[C@@H](C)N)c(OC)cc1Cc1nc(C)no1 [Example 2, hydrochloride] ?
A: one

Q: Another compound to check: COc1cc(C[C@@H](C)N)c(OC)cc1CCCSC [Example 5, hydrochloride]
A: one

Q: Would you kindly repeat that for COc1ccc(Cc2cc(OC)c(C[C@@H](C)N)cc2OC)cc1 [Example 18, hydrochloride] ?
A: one

Q: What do we get for COc1cc(C[C@@H](C)N)c(OC)cc1Cc1ccccc1 [Example 17, hydrochloride] ?
A: two

Q: Next up: COCSCCc1cc(OC)c(C[C@@H](C)N)cc1OC [Example 7, hydrochloride]
A: two

* * *

biological target: 5-HT2 receptor in A7r5 rat vascular smooth muscle cells (Rattus norvegicus); construct: endogenous in cells; host or cells: A7r5 rat vascular smooth muscle cells; test: 5-HT2 Functional Assay: Calcium Mobilization (FLIPR); assay type: cell-based
Structures can show the parent of a compound that is named as a salt.
Consider the following compounds; for each one, report its log10 of EC50.
// stored as log10 of EC50 expressed in nM

COCSCCc1cc(OC)c(C[C@@H](C)N)cc1OC [Example 7, hydrochloride] ... 1.96
COc1cc(C[C@@H](C)N)c(OC)cc1CC1=NCCS1 [Example 10, hydrochloride] ... 2.78
COc1cc(C[C@@H](C)N)c(OC)cc1Cc1nc(C)no1 [Example 2, hydrochloride] ... 3.03
COc1cc(C)c(OC(C)=O)cc1CC(C)N (stereo not drawn) [Example 9, hydrochloride] ... 3.69
COc1cc(C[C@@H](C)N)c(OC)cc1CCCSC [Example 5, hydrochloride] ... 1.57
COc1cc(CC(C)N)c(OC)cc1CSC (stereo not drawn) [Example 14, hydrochloride] ... 1.83
COc1cc(CC(C)N)c(OC)cc1CCSC.Cl (stereo not drawn) [Example 4, hydrochloride] ... 1.97
COc1cc(C)c(OS(C)(=O)=O)cc1CC(C)N (stereo not drawn) [Example 8, hydrochloride] ... 2.95

Please give log10 of EC50, item by item, for the list that follows.
1. COc1ccccc1Cc1cc(OC)c(C[C@@H](C)N)cc1OC [Example 19, hydrochloride]
2. COCCCc1cc(OC)c(C[C@@H](C)N)cc1OC [Example 6, hydrochloride]
3. COc1ccc(Cc2cc(OC)c(C[C@@H](C)N)cc2OC)cc1 [Example 18, hydrochloride]
4. COc1cc(C[C@@H](C)N)c(OC)cc1Cc1ccc(Cl)cc1 [Example 21, hydrochloride]

A:
1. 2.82
2. 1.34
3. 2.34
4. 2.98

Batch request: log10 of EC50 for each of the following compounds.
1. CCOC(=O)Cc1cc(OC)c(C[C@@H](C)N)cc1OC [Example 1, hydrochloride]
2. COc1cc(C[C@@H](C)N)c(OC)cc1CC1CCCO1 (stereo partly drawn) [Example 12, hydrochloride]
3. COc1cccc(Cc2cc(OC)c(C[C@@H](C)N)cc2OC)c1 [Example 20, hydrochloride]

A:
3.04
1.91
2.41
